src = paper PMC10258912

For reference, Ki measured on hCA I (Homo sapiens):
Give the value, in units of nM, as a plain number.

query: Identify the measured Ki of "O=C(NN=Cc1ccc([N+](=O)[O-])cc1)c1ccc(-c2nc3ccccc3[nH]2)cc1" for hCA I (Homo sapiens).
result: 956

// moving on: another record for Ki
query: Given the entry "Cc1ccc(C=NNC(=O)c2ccc(-c3nc4ccccc4[nH]3)cc2)cc1" , what Ki was observed with hCA I (Homo sapiens)?
result: 299

* * *

target desc: hCA I (Homo sapiens, UniProt P00915)
Construct: made in house
Sequence (P00915 whole entry): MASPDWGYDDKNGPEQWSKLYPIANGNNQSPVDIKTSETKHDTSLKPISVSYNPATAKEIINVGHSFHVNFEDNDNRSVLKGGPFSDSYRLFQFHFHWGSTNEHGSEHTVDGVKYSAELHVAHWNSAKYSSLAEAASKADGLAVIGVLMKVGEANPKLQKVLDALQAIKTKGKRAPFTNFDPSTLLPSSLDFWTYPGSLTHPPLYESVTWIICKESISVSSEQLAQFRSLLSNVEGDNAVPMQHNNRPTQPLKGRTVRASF
experimental details: hCA I hydratase activity inhibition assay (Wilbur-Anderson method)
Format: biochemical
experimental context: hydratase activity, constant substrate concentration; read-out: IC50 hCA I
Protocol: Purification of hCA I and hCA II by affinity chromatography was performed as described in the previous work. The Wilbur-Anderson method, as modified by Wilber et al., was used to calculate CA activity. With the help of a bromothymol blue indicator and a measurement of the passing time, the pH changes were calculated using this approach, which causes the hydration of CO2 to release H^+ ions. […]
Measured IC50 accompanies every entry in the list below.
Please respond with the number in nM and leave the unit unwritten.

Worked cases, answers included:
query: Name the recorded IC50 for "O=C(NN=Cc1ccc(F)cc1)c1ccc(-c2nc3ccccc3[nH]2)cc1" .
result: 2720

query: Recorded IC50 of "CC(C)c1ccc(C=NNC(=O)c2ccc(-c3nc4ccccc4[nH]3)cc2)cc1" , please.
result: 1870

query: Please give the measured IC50 for this compound: "Cc1ccc(C=NNC(=O)c2ccc(-c3nc4ccccc4[nH]3)cc2)cc1"
result: 1680

Now for the compound whose IC50 we want.
query: So what's the measured IC50 for this one? "O=C(NN=Cc1ccc(OCc2ccccc2)cc1)c1ccc(-c2nc3ccccc3[nH]2)cc1"
result: 1950

* * *

target desc: hCA I (Homo sapiens, UniProt P00915)
Construct: made in house
experimental details: hCA I hydratase activity inhibition assay (Wilbur-Anderson method)
Type: biochemical
readout label: pIC50
# reply with the number alone; pIC50 is -log10 of concentration in mol/L

query: Entry "CCN(CC)c1ccc(C=NNC(=O)c2ccc(-c3nc4ccccc4[nH]3)cc2)cc1" has what pIC50?
result: 5.68
